- System: MS2 coat protein
- Experimental Details: apparent KD of MS2 coat protein; designed switch direction (-1 OFF switch, 1 ON switch): -1; higher = weaker reporter binding
- Condition Description: input ligand: microRNA oligo, concentration not stated
Quick rule for you: apparent KD of MS2 coat protein at 30 nM or higher means class 1, lower means class 0.

INSERT INTO assay_data (polymer_sequence, target_under_test, qualitative_label) VALUES
  ('GCUUUUUGUGUAGGAUAUCGCGCGCGGCGUGUGUGAGAAGGACAUGAGGAUCACCCAUGUAGCAACGGCGGCGCUGGUGUUGUC [-27, -24 kcal and 18% A] (Eterna round: R96, puzzle: Exclusion NG 1)', 'MS2 coat protein', 'class 0'),
  ('AGUAUGCGAGGAUAUACAUGAGGAUCACCCAUGUGAGAGAUAAAAGUGAGAAAGACAAGUAGAAGGCGCGUACA [JL Lego Mod 23] (Eterna round: R96, puzzle: Exclusion 3)', 'MS2 coat protein', 'class 1'),
  ('GUCCGGCAUGUAGGAUAUGGAUCCGAUUAGGAUCCAGAAGGACAUGAGGAUCACCCAUGUACAUGUAAACAGUCAUCACCGGAC [Fiskers ExNg1 - 13] (Eterna round: R96, puzzle: Exclusion NG 1)', 'MS2 coat protein', 'class 0'),
  ('GGUAGAGUGGCAGGAUAUCCGUCUGUUUCAGUCGGAGAAGGGCCACAGUCACUGGGUCCAAAUAUGGGUGACCAUGUAUCUACC [pwkr exNG1 F6.4] (Eterna round: R96, puzzle: Exclusion NG 1)', 'MS2 coat protein', 'class 0'),
  ('UUGUUAUAUGUAGGAUAUGCAUAUUGUUAUUAUGCAGAAGGACAUGAGGAUCACCCAUGUAUAUUAUUAUUAUAUAUUAUAUAU [Title] (Eterna round: R96, puzzle: Exclusion NG 1)', 'MS2 coat protein', 'class 0');

Is apparent KD of MS2 coat protein at least 30 nM? Consider AGCUGUGGCCGAGGAUAUCUAACAAUCCCAACCGAAAUAUAAUCGGACAUGAGGAUCACCCAUGUAGAGAAGGCGGUCUCAGCA [Eli eng2 - 073] (Eterna round: R96, puzzle: Exclusion NG 2) class 1

Is apparent KD of MS2 coat protein at least 30 nM? Consider UCGCUCCGUGUAGGAUAUCGUUGUACCCUGCGGCGAGAAGGACAUGAGGAUCACCCAUGUAUGUUAUUAUCACGCGUGGCGCAA [Design 69] (Eterna round: R96, puzzle: Exclusion NG 1) class 0

Is apparent KD of MS2 coat protein at least 30 nM? Consider ACUAGGCGAGGAUAUACAUGCUUAACGCAGGAAAAGCUGCGACAUGAGGAUCACCCAUGUAGAAGGCGCAAAUA [Xege] (Eterna round: R96, puzzle: Exclusion 2) class 0

Is apparent KD of MS2 coat protein at least 30 nM? Consider UGUUGUUACGCAGGAUAUGCAUGAGGAUCACCCAUGCAACCACAUUUAACAUGAGGAUCACCCAUGUAGAAGGGCGGGUUAACA [pwkr exNG2 2xF5 1xFMN.1] (Eterna round: R96, puzzle: Exclusion NG 2) class 0

Is apparent KD of MS2 coat protein at least 30 nM? Consider AGUUCGCAGAGAGGAUAUAUAGGGUUACGGCCUAUAGAAGGUUCACGUUAGCCGCAACAUGAGGAUCACCCAUGUGCUCCGCGA [Eternabot solution 35] (Eterna round: R96, puzzle: Exclusion NG 1) class 0

Is apparent KD of MS2 coat protein at least 30 nM? Consider UUUGUAUAUGAAGGAUAUACUUAACAUGAGGAUCACCCAUGUGGUGUUGUGAGUGAGUGAGUUUAGUAGAAGGUCAAUUCUUUU [JMF's solution 92] (Eterna round: R96, puzzle: Exclusion NG 2) class 1
